- tested_on: TBK1 (Homo sapiens (Human), UniProt Q9UHD2)
- Sequence (Q9UHD2 whole entry): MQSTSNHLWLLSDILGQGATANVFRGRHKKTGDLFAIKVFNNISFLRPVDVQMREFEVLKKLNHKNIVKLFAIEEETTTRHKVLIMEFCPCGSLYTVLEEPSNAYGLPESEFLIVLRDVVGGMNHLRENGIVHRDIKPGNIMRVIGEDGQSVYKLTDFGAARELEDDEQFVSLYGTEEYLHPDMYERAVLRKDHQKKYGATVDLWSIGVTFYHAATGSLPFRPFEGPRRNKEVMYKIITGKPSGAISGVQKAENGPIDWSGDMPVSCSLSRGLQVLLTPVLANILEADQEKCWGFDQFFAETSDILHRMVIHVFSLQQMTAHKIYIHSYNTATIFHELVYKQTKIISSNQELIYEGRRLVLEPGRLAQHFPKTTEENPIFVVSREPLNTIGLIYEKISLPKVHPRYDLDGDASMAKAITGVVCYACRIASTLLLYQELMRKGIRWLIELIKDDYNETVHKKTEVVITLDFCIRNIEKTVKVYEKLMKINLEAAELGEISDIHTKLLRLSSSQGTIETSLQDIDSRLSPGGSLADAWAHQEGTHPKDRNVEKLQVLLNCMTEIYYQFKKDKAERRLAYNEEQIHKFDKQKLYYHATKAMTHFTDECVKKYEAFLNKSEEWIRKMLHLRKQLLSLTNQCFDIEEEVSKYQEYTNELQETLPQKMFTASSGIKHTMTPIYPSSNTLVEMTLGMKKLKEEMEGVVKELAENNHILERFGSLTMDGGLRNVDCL
- test_details: TBK1 TR-FRET enzymatic assay;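 also: phosphorylation of a biotinylated Ser/Thr peptide by purified full-length recombinant TBK1, read by TR-FRET after 240 min at 25 °C, IC50 is the geometric mean of at least four runs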
API: label(entry) gives Satisfied if the entry's IC50 is strictly smaller than 20 nM; on equality or larger values it gives Not satisfied.

Query: Quick check: IC50 of N#Cc1cc(-c2ncnc(Nc3ccc(N4CCN(C5COC5)CC4)cc3)n2)ccc1OC1CCN(C(=O)c2cc[nH]c2)CC1 [Example 191] under 20 nM?
Reply: Not satisfied

Query: Quick check: IC50 of N#Cc1cc(-c2ncnc(Nc3ccc(N4CCN(C5COC5)CC4)cc3)n2)ccc1O[C@@H]1CCN(C(=O)CCO)C1 [Example 89] under 20 nM?
Reply: Satisfied

Query: Quick check: IC50 of C[C@H]1CN(c2ccc(Nc3ncnc(-c4ccc(O[C@H]5CCN(C(=O)[C@@H]6CCC(=O)N6)C[C@H]5F)c(C#N)c4)n3)cc2)CCN1C1COC1 [Example 535] under 20 nM?
Reply: Satisfied

Query: Quick check: IC50 of CN1CC2(CCN(c3ccc(-c4ncnc(Nc5ccc(N6CCN(C7COC7)CC6)cc5)n4)cc3C#N)CC2)C1 [Example 209] under 20 nM?
Reply: Not satisfied

Query: Quick check: IC50 of N#Cc1cc(-c2ncnc(Nc3ccc(N4CCN(C5COC5)CC4)cc3)n2)ccc1O[C@@H]1CN(C(=O)CO)CC1(F)F (single isomer, unassigned) [Example 196] under 20 nM?
Reply: Not satisfied

Query: Quick check: IC50 of C[C@H](O)C(=O)N1CC[C@H](Oc2ccc(-c3ncnc(Nc4ccc(N5CCN(CC6COC6)CC5)cc4)n3)cc2C#N)[C@H](F)C1 [Example 308] under 20 nM?
Reply: Satisfied

====

- tested_on: hJAK2 (Homo sapiens (Human))
- Sequence (O60674 whole entry): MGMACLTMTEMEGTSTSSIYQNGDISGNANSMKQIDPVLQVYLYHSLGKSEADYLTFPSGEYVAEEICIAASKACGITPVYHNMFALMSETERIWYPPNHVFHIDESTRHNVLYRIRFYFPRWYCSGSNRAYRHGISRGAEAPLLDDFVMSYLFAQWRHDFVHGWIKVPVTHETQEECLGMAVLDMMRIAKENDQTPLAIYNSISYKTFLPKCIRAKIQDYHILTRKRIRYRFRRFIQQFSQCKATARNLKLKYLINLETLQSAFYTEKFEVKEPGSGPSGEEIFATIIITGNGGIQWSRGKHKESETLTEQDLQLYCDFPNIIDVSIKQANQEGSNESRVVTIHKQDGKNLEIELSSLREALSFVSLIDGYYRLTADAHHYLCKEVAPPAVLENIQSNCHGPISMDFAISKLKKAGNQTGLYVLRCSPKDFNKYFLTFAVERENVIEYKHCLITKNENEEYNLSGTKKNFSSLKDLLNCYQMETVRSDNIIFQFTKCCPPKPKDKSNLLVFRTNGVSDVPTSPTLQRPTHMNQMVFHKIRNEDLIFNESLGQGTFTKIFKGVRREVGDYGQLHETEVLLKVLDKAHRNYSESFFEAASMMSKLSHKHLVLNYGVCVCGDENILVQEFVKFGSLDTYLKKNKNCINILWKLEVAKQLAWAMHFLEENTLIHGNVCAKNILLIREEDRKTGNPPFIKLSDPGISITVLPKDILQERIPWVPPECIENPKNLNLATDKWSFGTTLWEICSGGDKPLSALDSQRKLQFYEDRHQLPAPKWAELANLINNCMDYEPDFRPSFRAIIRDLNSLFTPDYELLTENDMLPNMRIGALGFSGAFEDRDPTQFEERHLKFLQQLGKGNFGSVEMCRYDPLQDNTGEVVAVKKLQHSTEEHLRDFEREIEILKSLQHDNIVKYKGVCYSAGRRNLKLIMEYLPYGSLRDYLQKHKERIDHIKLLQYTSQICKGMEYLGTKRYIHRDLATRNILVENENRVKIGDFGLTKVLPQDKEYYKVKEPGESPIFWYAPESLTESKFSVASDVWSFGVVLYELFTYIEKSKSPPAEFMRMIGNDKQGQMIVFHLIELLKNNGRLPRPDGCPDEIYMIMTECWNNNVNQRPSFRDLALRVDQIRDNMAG
Counter-ions that a name gives are not always drawn.
observed_property: pIC50
Lab note — pIC50 values are minus log10 of concentrations in M.

Kindly note the recorded pIC50 for N#Cc1cc(-c2ncnc(Nc3ccc(N4CCN(C5COC5)CC4)c(F)c3)n2)ccc1OC1CCS(=O)(=O)CC1 [Example 268] , which is 6.28

Kindly note the recorded pIC50 for Cc1n[nH]c(C(=O)N2CC[C@H](Oc3ccc(-c4ncnc(Nc5ccc(N6CCN(C7COC7)CC6)cc5)n4)cc3C#N)[C@H](F)C2)c1C [Example 526] , which is 6.35

Kindly note the recorded pIC50 for N#Cc1cc(-c2ncnc(Nc3ccc(N4CCN(C5COC5)CC4)cc3)n2)ccc1O[C@H]1CCN(C(=O)[C@@H]2COC(=O)N2)CC1(F)F [Example 519] , which is 6.74

Kindly note the recorded pIC50 for C[C@@H](O)C(=O)N1CC[C@H](Oc2ccc(-c3ncnc(Nc4ccc(N5CCN(C6COC6)CC5)cc4)n3)cc2C#N)C(F)(F)C1 (single isomer, unassigned) [Example 158] , which is 6.77

Kindly note the recorded pIC50 for C[C@H](O)C(=O)N1CC[C@H](Oc2ccc(-c3ncnc(Nc4ccc(N5CCN(C6COC6)CC5)cc4)n3)cc2C#N)C[C@@H]1C [Example 181] , which is 6.36

Kindly note the recorded pIC50 for N#Cc1cc(-c2ncnc(Nc3ccc(N4CCN(C5COC5)CC4)cc3)n2)ccc1N1CC[C@@H](F)C1 [Example 200] , which is 6.96

Kindly note the recorded pIC50 for N#Cc1cc(-c2ncnc(Nc3ccc(N4CCN(C5COC5)CC4)cc3)n2)ccc1O[C@H]1CCN(C(=O)[C@@H]2CCCC(=O)N2)C[C@H]1F [Example 117] , which is 6.47

Kindly note the recorded pIC50 for CC(C)NC(=O)c1ccc(Nc2ncnc(-c3ccc(O[C@@H]4CCNC4)c(C#N)c3)n2)cc1 [Example 84] , which is 6.09

Kindly note the recorded pIC50 for N#Cc1cc(-c2ncnc(Nc3ccc(N4CCN(C5COC5)CC4)cc3)n2)ccc1O[C@H]1CCN(C(=O)[C@@H](O)CO)CC1(F)F [Example 581] , which is 7.07

Kindly note the recorded pIC50 for C[C@@H]1CN(c2ccc(Nc3ncnc(-c4ccc(O[C@@H]5CCN(C(=O)[C@@H](C)O)CC5(F)F)c(C#N)c4)n3)cc2)CCN1C1COC1 [Example 247] , which is 6.48

Kindly note the recorded pIC50 for COc1cc(Nc2ncnc(-c3ccc(O[C@H]4CCN(C(=O)[C@@H](O)CO)C[C@H]4F)c(C#N)c3)n2)ccc1N1CCN(C2COC2)CC1 [Example 578] , which is 7.15

Kindly note the recorded pIC50 for N#Cc1cc(-c2ncnc(Nc3ccc(N4CCN(C5COC5)CC4)cc3)n2)ccc1O[C@H]1CCN(C(=O)[C@@H]2C[C@@H](O)C(=O)N2)C[C@H]1F [Example 403] , which is 6.07

Kindly note the recorded pIC50 for CC(N)C(=O)N1CC[C@H](Oc2ccc(-c3ncnc(Nc4ccc(N5CCN(C6COC6)CC5)cc4)n3)cc2C#N)[C@H](F)C1 (stereo in doubt) [Example 434] , which is 6.06

Kindly note the recorded pIC50 for C[C@H](O)C(=O)N1CC[C@@H](Oc2ccc(-c3ncnc(Nc4ccc(N5CCN(C6COC6)[C@H](C)C5)cc4)n3)cc2C#N)C(F)(F)C1 [Example 245] , which is 6.64

Kindly note the recorded pIC50 for N#Cc1cc(-c2ncnc(Nc3ccc(N4CCN(C5COC5)CC4)cc3)n2)ccc1O[C@H]1CCN(C(=O)C(O)CO)CC1(F)F (stereo partly shown) [Example 580] , which is 6.78

Kindly note the recorded pIC50 for C[C@H](O)C(=O)N1CC[C@H](Oc2ccc(-c3ncnc(Nc4ccc(N5CCN(C6COC6)[C@@H](CO)C5)cc4)n3)cc2C#N)C(F)(F)C1 [Example 469] , which is 6.71

Kindly note the recorded pIC50 for CS(=O)(=O)c1ccc(-c2ncnc(Nc3ccc(N4CCN(C5COC5)CC4)cc3)n2)cc1 [Example 484, trifluoroacetic acid salt] , which is 6.08

Kindly note the recorded pIC50 for Cc1cc(Nc2ncnc(-c3ccc(O[C@H]4CCN(C(=O)[C@H](C)O)C[C@H]4F)c(C#N)c3)n2)ccc1C1CCN(C=O)CC1 [Example 493] , which is 6.11

====

Please go through the items and note down their IC50.

Summary: N#Cc1cc(-c2ncnc(Nc3ccc(N4CCN(C5COC5)CC4)cc3)n2)ccc1N1CC[C@@H](O)C1 , hJAK2 (Homo sapiens (Human), UniProt O60674), IC50 = 192 nM

Summary: N#Cc1cc(-c2ncnc(Nc3ccc(N4CCOCC4)cc3)n2)ccc1O[C@@H]1CCNC1 , hJAK2 (Homo sapiens (Human), UniProt O60674), IC50 = 389 nM

Summary: C[C@H](O)C(=O)N1CC[C@H](Oc2ccc(-c3ncnc(Nc4ccc5c(c4)NCCO5)n3)cc2C#N)[C@H](F)C1 , hJAK2 (Homo sapiens (Human), UniProt O60674), IC50 = 828 nM

Summary: C[C@H]1CN(c2ccc(Nc3ncnc(-c4ccc(O[C@H]5CCN(C(=O)c6cnn[nH]6)C[C@H]5F)c(C#N)c4)n3)cc2)CCN1C1COC1 , hJAK2 (Homo sapiens (Human), UniProt O60674), IC50 = 158 nM

Summary: C[C@H](O)C(=O)N1CC[C@H](Oc2ccc(-c3ncnc(Nc4ccnc(C(C)(C)O)c4)n3)cc2C#N)[C@H](F)C1 , hJAK2 (Homo sapiens (Human), UniProt O60674), IC50 = ≥ 1000 nM

Summary: N#Cc1cc(-c2ncnc(Nc3ccc(N4CCN(C5COC5)CC4)cc3)n2)ccc1O[C@H]1CCN(C(=O)[C@H]2CCCN2)C[C@H]1F , hJAK2 (Homo sapiens (Human), UniProt O60674), IC50 = ≥ 1000 nM

Summary: N#Cc1cc(-c2ncnc(Nc3ccc(N4CCN(C5COC5)CC4)cc3)n2)ccc1N1CCCC1=O , hJAK2 (Homo sapiens (Human), UniProt O60674), IC50 = 583 nM

Summary: CC(=O)N[C@@H](C)C(=O)N1CC[C@H](Oc2ccc(-c3ncnc(Nc4ccc(N5CCN(C6COC6)CC5)cc4)n3)cc2C#N)[C@H](F)C1 , hJAK2 (Homo sapiens (Human), UniProt O60674), IC50 = 478 nM

Summary: N#Cc1cc(-c2ncnc(Nc3ccc(N4CCN(C5COC5)CC4)cc3)n2)ccc1O[C@H]1CCN(C(=O)[C@@H]2C[C@H](O)C(=O)N2)C[C@H]1F , hJAK2 (Homo sapiens (Human), UniProt O60674), IC50 = 450 nM

Summary: N#Cc1cc(-c2ncnc(Nc3ccc(N4CCN(C5COC5)CC4)cc3)n2)ccc1O[C@H]1CCN(C(=O)c2cc[nH]c(=O)c2)C[C@H]1F , hJAK2 (Homo sapiens (Human), UniProt O60674), IC50 = 207 nM

Summary: Cc1c(Nc2ncnc(-c3ccc(O[C@H]4CCN(C(=O)[C@@H](O)CO)C[C@H]4F)c(C#N)c3)n2)cnn1C , hJAK2 (Homo sapiens (Human), UniProt O60674), IC50 = ≥ 1000 nM

Summary: N#Cc1cc(Nc2ncnc(-c3ccc(OC4CCOCC4)c(C#N)c3)n2)ccc1OC1CCOCC1 , hJAK2 (Homo sapiens (Human), UniProt O60674), IC50 = > 1000 nM

Summary: N#Cc1cc(-c2ncnc(Nc3ccc(N4CCN(C5COC5)CC4)cc3)n2)ccc1O[C@H]1CCN(C(=O)c2cn[nH]c2Cl)C[C@H]1F , hJAK2 (Homo sapiens (Human), UniProt O60674), IC50 = 167 nM
